# assayOverview: chemical genetic growth profiling, strain panel (AID 1159580);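 further: tested at 20 µM; growth read once vehicle control cultures reached saturation at 30 °C; 1 = growth at the plate median or of vehicle wells; lower values mean less growth of the strain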
# experimentalContext: S. cerevisiae deletion strains, growth OD, locus YPL240C, strain hsp82, active compounds read low
Screen size: about 5,500 compounds; about 2,000 (36%) were called active. Roughly 18% stayed inconclusive and do not appear here. The list shows a part of the results.
resultType: normalized growth
Answer using only a numeral; do not append any unit.

Some solved entries appear below for comparison.
In: Report normalized growth for CC1(C)C(=O)C=C[C@@]2(C)C1C=C[C@]1(C)C2CC[C@@]2(C)[C@H](c3ccoc3)OC(=O)C3OC321 (some centres not stated)
Out: 0.985

In: Give normalized growth for the following compound: CCC(N)C(O)c1ccc(O)c(O)c1 (configuration not stated)
Out: 1.01

In: Provide measured normalized growth value, entry: OC1CC2CCCC(C1)N2Cc1ccccc1 (configuration not stated)
Out: 1

In: Determine from records and report normalized growth for C[C@]12CCC3c4ccc(O)cc4CCC3C1CC[C@@H]2O (some centres not stated)
Out: 0.999

In: Dear colleague, please send me the reported normalized growth for CCCCCCCCCCCC1=C(O)C(=O)C=C(O)C1=O when you can.
Out: 0.907

Next:
In: Quick one: give measured normalized growth for CC/C(=C(/CC)c1ccc(O)cc1)c1ccc(O)cc1
Out: 1.01

In: Return normalized growth for the following compound: C=CC1C2=CCOC(=O)C2=COC1OC1OC(CO)C(O)C(O)C1O (configuration not stated)
Out: 1
